Assay: in vitro
Conditions: Drosophila melanogaster, CC50, S2 cells, 48 h incubation, WST-1
readout kind: CC50

Noted for `COC(=O)[C@H]1[C@@H](O)[C@@]2(O)c3c(OC)cc(O[C@@H]4O[C@@H]([C@H](O)CO)CO[C@H]4OC)cc3O[C@@]2(c2ccc(OC)cc2)[C@@H]1c1ccccc1` : its CC50 reads 7.3 nM

====

Assay: in vitro
Settings: Drosophila melanogaster, CC50, S2 cells, 24 h incubation, WST-1
readout kind: CC50 (µM)
Return type: number; implicit unit µM.

In plain terms, `COC(=O)[C@H]1[C@@H](O)[C@@]2(O)c3c(OC)cc(O[C@@H]4O[C@@H]([C@H](O)CO)CO[C@H]4OC)cc3O[C@@]2(c2ccc(OC)cc2)[C@@H]1c1ccccc1` has a documented CC50 of 0.0115

====

System: S2 cells
Test: cells
Conditions: Drosophila melanogaster, 24 h, read-out: IC50 (best-fit value, 4PL dose-viability curve)
readout kind: pIC50
The meaning of pIC50 here: minus log10 of the concentration in molar units.

Entry `COC(=O)[C@H]1[C@@H](O)[C@@]2(O)c3c(OC)cc(O[C@@H]4O[C@@H]([C@H](O)CO)CO[C@H]4OC)cc3O[C@@]2(c2ccc(OC)cc2)[C@@H]1c1ccccc1` — recorded pIC50 = 8.20

====

Assay: in vitro
Settings: Aedes aegypti, CC50, Aag2 cells, 48 h incubation, WST-1
readout kind: CC50 (µM)
Number in µM, nothing else.

Quick note, CC50 for `COC(=O)[C@H]1[C@@H](O)[C@@]2(O)c3c(OC)cc(O[C@@H]4O[C@@H]([C@H](O)CO)CO[C@H]4OC)cc3O[C@@]2(c2ccc(OC)cc2)[C@@H]1c1ccccc1` landed at 0.049

====

Test: in vitro
Details: Aedes aegypti, CC50, Aag2 cells, 24 h incubation, WST-1
readout kind: CC50 (µM)
The answer is to be given in µM; state only the numeric part.

Record summary for `COC(=O)[C@H]1[C@@H](O)[C@@]2(O)c3c(OC)cc(O[C@@H]4O[C@@H]([C@H](O)CO)CO[C@H]4OC)cc3O[C@@]2(c2ccc(OC)cc2)[C@@H]1c1ccccc1` : reported CC50 = 0.0556
